// reported IC50 per item
# ASSAY TARGET: rat brain cortical membranes ([35S]-TBPS binding)
# ASSAY: Steroid inhibition of [35S]-TBPS binding (radioligand displacement)
# STATED CONDITIONS: 3 nM [35S]-TBPS, in the presence of 5 μM GABA

COMPOUND STRUCTURE: C[C@@]1(O)CC[C@@]2(C)[C@@H](CC[C@@H]3[C@@H]2CC[C@]2(C)[C@@H](C(=O)c4ccc(OC(F)(F)F)cc4)CC[C@@H]32)C1
IC50: > 0.1 µM

COMPOUND STRUCTURE: CN(C)c1ccc(C(=O)[C@H]2CC[C@H]3[C@@H]4CC[C@@H]5C[C@](C)(O)CC[C@]5(C)[C@H]4CC[C@]23C)cc1
IC50: 0.02 to 0.05 µM

COMPOUND STRUCTURE: C[C@@]1(O)CC[C@@]2(C)[C@H](CC[C@@H]3[C@@H]2CC[C@]2(C)[C@@H](C(=O)c4ccc(OC(F)(F)F)cc4)CC[C@@H]32)C1
IC50: 0.02 to 0.05 µM

COMPOUND STRUCTURE: C[C@@]1(O)CC[C@@]2(C)[C@@H](CC[C@@H]3[C@@H]2CC[C@]2(C)[C@@H](C(=O)c4cccnc4)CC[C@@H]32)C1
IC50: 0.02 to 0.05 µM

COMPOUND STRUCTURE: Cc1ccccc1C(=O)[C@H]1CC[C@H]2[C@@H]3CC[C@@H]4C[C@](C)(O)CC[C@@H]4[C@H]3CC[C@]12C
IC50: > 0.1 µM

COMPOUND STRUCTURE: COc1ccccc1C(=O)[C@H]1CC[C@H]2[C@@H]3CC[C@@H]4C[C@](C)(O)CC[C@]4(C)[C@H]3CC[C@]12C
IC50: > 0.1 µM

COMPOUND STRUCTURE: COC[C@]12CC[C@@](C)(O)C[C@@H]1CC[C@H]1[C@@H]3CC[C@H](C(=O)c4ccc(C)cc4)[C@@]3(C)CC[C@@H]12
IC50: > 0.1 µM

COMPOUND STRUCTURE: C[C@@]1(O)CC[C@@]2(C)[C@H](CC[C@@H]3[C@@H]2CC[C@]2(C)[C@@H](C(=O)c4ccc5ccccc5c4)CC[C@@H]32)C1
IC50: 0.05 to 0.1 µM

COMPOUND STRUCTURE: COC[C@]12CC[C@@](C)(O)C[C@@H]1CC[C@H]1[C@@H]3CC[C@H](C(=O)c4ccc5cc(OC)ccc5c4)[C@@]3(C)CC[C@@H]12
IC50: > 0.1 µM

COMPOUND STRUCTURE: COC[C@]12CC[C@@](C)(O)C[C@@H]1CC[C@H]1[C@@H]3CC[C@H](C(=O)c4ccccc4OC)[C@@]3(C)CC[C@@H]12
IC50: > 0.1 µM

COMPOUND STRUCTURE: C[C@@]1(O)CC[C@@]2(C)[C@H](CC[C@@H]3[C@@H]2CC[C@]2(C)[C@@H](C(=O)c4cc(F)cc(F)c4)CC[C@@H]32)C1
IC50: 0.05 to 0.1 µM

COMPOUND STRUCTURE: C[C@@]1(O)CC[C@H]2[C@H](CC[C@@H]3[C@@H]2CC[C@]2(C)[C@@H](C(=O)c4ccc(Cl)cc4)CC[C@@H]32)C1
IC50: 0.02 to 0.05 µM

----------
# ASSAY TARGET: rat brain cortical membranes ([35S]-TBPS binding)
# ASSAY: Steroid inhibition of [35S]-TBPS binding (radioligand displacement)
# STATED CONDITIONS: 3 nM [35S]-TBPS, in the presence of 5 μM GABA
ASSAY METRIC: IC50

COMPOUND: Cc1ccsc1C(=O)[C@H]1CC[C@H]2[C@@H]3CC[C@@H]4C[C@](C)(O)CC[C@@H]4[C@H]3CC[C@]12C [Compound 46]
OBS VALUE: > 100 nM
//
COMPOUND: COc1cccc(C(=O)[C@H]2CC[C@H]3[C@@H]4CC[C@H]5C[C@](C)(O)CC[C@]5(C)[C@H]4CC[C@]23C)c1 [Compound 77]
OBS VALUE: > 100 nM
//
COMPOUND: COc1ccc(C(=O)[C@H]2CC[C@H]3[C@@H]4CC[C@H]5C[C@](C)(O)CC[C@@H]5[C@H]4CC[C@]23C)cc1 [Compound 87]
OBS VALUE: > 100 nM

----------
Here, each record is paired with measured IC50 data.
# ASSAY TARGET: rat brain cortical membranes ([35S]-TBPS binding)
# ASSAY: Steroid inhibition of [35S]-TBPS binding (radioligand displacement)
# STATED CONDITIONS: 3 nM [35S]-TBPS, in the presence of 5 μM GABA

COMPOUND: C[C@@]1(O)CC[C@@]2(C)[C@H](CC[C@@H]3[C@@H]2CC[C@]2(C)[C@@H](C(=O)c4cccc(F)c4)CC[C@@H]32)C1 [Compound 83]
IC50: 20 to 50 nM
--
COMPOUND: CCc1ccc(C(=O)[C@H]2CC[C@H]3[C@@H]4CC[C@@H]5C[C@](C)(O)CC[C@]5(C)[C@H]4CC[C@]23C)cc1 [Compound 49]
IC50: < 20 nM
--
COMPOUND: COc1cccc(C(=O)[C@H]2CC[C@H]3[C@@H]4CC[C@H]5C[C@](C)(O)CC[C@@H]5[C@H]4CC[C@]23C)c1 [Compound 71]
IC50: > 100 nM
--
COMPOUND: Cn1ccnc1C(=O)[C@H]1CC[C@H]2[C@@H]3CC[C@@H]4C[C@](C)(O)CC[C@@H]4[C@H]3CC[C@]12C [Compound 3]
IC50: > 100 nM
--
COMPOUND: COC[C@]12CC[C@@](C)(O)C[C@@H]1CC[C@H]1[C@@H]3CC[C@H](C(=O)c4ccc(OC)cc4)[C@@]3(C)CC[C@@H]12 [Compound 107]
IC50: 50 to 100 nM
--
COMPOUND: Cn1nccc1C(=O)[C@H]1CC[C@H]2[C@@H]3CC[C@@H]4C[C@](C)(O)CC[C@@H]4[C@H]3CC[C@]12C [Compound 9]
IC50: 20 to 50 nM
--
COMPOUND: COC[C@]12CC[C@@](C)(O)C[C@@H]1CC[C@H]1[C@@H]3CC[C@H](C(=O)c4ccccc4-c4ccccc4)[C@@]3(C)CC[C@@H]12 [Compound 91]
IC50: > 100 nM
--
COMPOUND: C[C@@]1(O)CC[C@H]2[C@H](CC[C@@H]3[C@@H]2CC[C@]2(C)[C@@H](C(=O)c4cccc(F)c4)CC[C@@H]32)C1 [Compound 56]
IC50: 20 to 50 nM
--
COMPOUND: COc1ccc(C(=O)[C@H]2CC[C@H]3[C@@H]4CC[C@@H]5C[C@](C)(O)CC[C@]5(C)[C@H]4CC[C@]23C)cc1 [Compound 61]
IC50: > 100 nM
--
COMPOUND: COc1cc(OC)cc(C(=O)[C@H]2CC[C@H]3[C@@H]4CC[C@@H]5C[C@](C)(O)CC[C@]5(C)[C@H]4CC[C@]23C)c1 [Compound 21]
IC50: > 100 nM
--
COMPOUND: COC[C@]12CC[C@@](C)(O)C[C@@H]1CC[C@H]1[C@@H]3CC[C@H](C(=O)c4ccc5c(c4)OCO5)[C@@]3(C)CC[C@@H]12 [Compound 94]
IC50: 50 to 100 nM
--
COMPOUND: COc1ccc(C(=O)[C@H]2CC[C@H]3[C@@H]4CC[C@H]5C[C@](C)(O)CC[C@]5(C)[C@H]4CC[C@]23C)cc1 [Compound 76]
IC50: > 100 nM
--
COMPOUND: Cc1ccc(C(=O)[C@H]2CC[C@H]3[C@@H]4CC[C@H]5C[C@](C)(O)CC[C@]5(C)[C@H]4CC[C@]23C)cc1F [Compound 45]
IC50: > 100 nM

----------
Listed here: items and their measured IC50.
# ASSAY TARGET: rat brain cortical membranes ([35S]-TBPS binding)
# ASSAY: Steroid inhibition of [35S]-TBPS binding (radioligand displacement)
# STATED CONDITIONS: 3 nM [35S]-TBPS, in the presence of 5 μM GABA

COMPOUND: C[C@@]1(O)CC[C@H]2[C@H](CC[C@@H]3[C@@H]2CC[C@]2(C)[C@@H](C(=O)c4ccc5ccccc5c4)CC[C@@H]32)C1 [Compound 19]
ASSAY TARGET: rat brain cortical membranes ([35S]-TBPS binding)
IC50: 0.05 to 0.1 µM

COMPOUND: C[C@@]1(O)CC[C@@]2(C)[C@H](CC[C@@H]3[C@@H]2CC[C@]2(C)[C@@H](C(=O)c4ccccc4)CC[C@@H]32)C1 [Compound 28]
ASSAY TARGET: rat brain cortical membranes ([35S]-TBPS binding)
IC50: 0.02 to 0.05 µM

COMPOUND: C[C@@]1(O)CC[C@@]2(C)[C@@H](CC[C@@H]3[C@@H]2CC[C@]2(C)[C@@H](C(=O)c4ccc5ccccc5c4)CC[C@@H]32)C1 [Compound 14]
ASSAY TARGET: rat brain cortical membranes ([35S]-TBPS binding)
IC50: 0.05 to 0.1 µM

COMPOUND: C[C@@]1(O)CC[C@H]2[C@H](CC[C@@H]3[C@@H]2CC[C@]2(C)[C@@H](C(=O)c4ccc5c(c4)OCO5)CC[C@@H]32)C1 [Compound 35]
ASSAY TARGET: rat brain cortical membranes ([35S]-TBPS binding)
IC50: < 0.02 µM

COMPOUND: C[C@@]1(O)CC[C@@]2(C)[C@@H](CC[C@@H]3[C@@H]2CC[C@]2(C)[C@@H](C(=O)c4ccc(Cl)cc4)CC[C@@H]32)C1 [Compound 81]
ASSAY TARGET: rat brain cortical membranes ([35S]-TBPS binding)
IC50: > 0.1 µM

COMPOUND: COc1ccc(C(=O)[C@H]2CC[C@H]3[C@@H]4CC[C@@H]5C[C@](C)(O)CC[C@@H]5[C@H]4CC[C@]23C)c(C)c1 [Compound 43]
ASSAY TARGET: rat brain cortical membranes ([35S]-TBPS binding)
IC50: 0.02 to 0.05 µM
